RESULT TYPE: melting point

Worked cases, melting point given:
| MOLECULE | melting point |
| --- | --- |
| CC(C)c1ccc(-c2ccc(Sc3ccccc3)s2)cc1 | 61 to 63 °C |
| CC(C)(C#N)c1cc(O)cc2cc(-c3ccc(O)cc3)oc12 | 284 °C |
| CCCN(C(C)C)C(C)CC1=C(c2ccc(OC)cc2)CCCNC1=O (stereo not drawn) | 90 to 92 °C |
| NCC(C(=O)O)C1CCCCC1 (stereo not drawn) | 238 to 240 °C |
| Cc1ccc2c(Sc3cc(Cl)cc(Cl)c3)c(CCC(N)=O)[nH]c2c1 | 152 °C |

Recorded melting point (molecule COc1cc2c3c4c(c(-c5ccccc5Cl)cc3n(C)c2cc1OCc1ccccc1)C(=O)NC4=O ): 282 to 285 °C

Recorded melting point (molecule N#CN=c1[nH]c2c([N+](=O)[O-])c(Cl)c(Cl)cc2nc1Cl ): 245 to 255 °C

Recorded melting point (molecule O=S(=O)(Nc1ncnc(Cl)c1-c1ccc(Cl)cc1)c1ccc(C(F)(F)F)cc1 ): 275 °C

Recorded melting point (molecule CC(C)(C)OC(=O)C=C(c1ccc(C#N)s1)n1ccnc1 ): 90 to 91 °C

Recorded melting point (molecule COc1ccc(-n2c(CF)nc3ccc(N)cc3c2=O)c(C)c1 ): 200 to 202 °C

Recorded melting point (molecule CCc1nn2ccc3c(c2c1C(C)C#N)CCO3 (stereo not drawn) ): 86 to 88 °C

Recorded melting point (molecule CCCCCCCCCCCCCCCCCCN(CCCCCCCCCCCCCCCCCC)c1ccccc1 ): 110 to 111 °C

Recorded melting point (molecule O=C(O)c1ccc(Cc2ccccc2)cn1 ): 145 to 147 °C

Recorded melting point (molecule CCCCC(O)Cc1c(O)c2cccnc2n(-c2ccccc2)c1=O (stereo not drawn) ): 184 to 186 °C

Recorded melting point (molecule Cc1nc(-n2ccc3c(OCc4ccccc4)cccc3c2=O)sc1C(=O)NCc1ccccc1 ): 225 to 226 °C

====

Each entry below lists one item and its recorded melting point value.

Worked cases, melting point given:
| COMPOUND | melting point |
| --- | --- |
| O=C(NC1CCN(CCCOc2ccc3c4c(c(=O)oc3c2)CCC4)CC1)c1ccc([N+](=O)[O-])cc1 | 212 to 213 °C |
| CCOC(=O)C1OC(n2cnc3c(N)ncnc32)C(O)C1N (stereo not given) | 179 to 182 °C |
| C/C(=N\O)C(=O)c1ccc(F)cc1F | 99 to 101 °C |
| CCN(C(=O)C1CC1)c1cccc(-c2ccnc3c(Cl)cnn23)c1 | 150 to 151 °C |
| COc1cccc2[nH]c(=O)n3c(=O)[nH]nc3c12 | > 350 °C |

Recorded melting point (compound COc1cc(OC)c2c(c1OC)CCC(C(=O)Cc1cccc(F)c1)C2C#N (stereo not given) ): 58 to 62 °C

Recorded melting point (compound O=C(CC1c2ccc(-c3ccccc3)cc2S(=O)(=O)N1c1ccccc1)NO (stereo not given) ): 191 to 193 °C

Recorded melting point (compound O=C1Nc2ccccc2Sc2c1cccc2C(F)(F)F ): 256 to 258 °C

Recorded melting point (compound O=C(O)C=CCNCS(=O)(=O)c1ccc([N+](=O)[O-])cc1[N+](=O)[O-] ): 174 °C

Recorded melting point (compound CC(C)c1ccc(OC(Cc2ccc(OCCNC(=O)c3ccc(-c4ccc(F)cc4)nc3)cc2)C(=O)O)cc1 (stereo not given) ): 199 to 200 °C

Recorded melting point (compound O=C1CC(c2ccc(O)cc2)=Nc2ccc(N3CCCC3)cc21 ): 304 to 306 °C

Recorded melting point (compound O=C(O)CCc1ccc(CCN2CCN(S(=O)(=O)c3ccccc3)CC2)cc1 ): 177 to 178 °C
